Provenance of the data: patent US10696615B2

- Test system: TK-10
- assay.procedure: NCI in vitro cancer screen, Renal Cancer
- Type: cell-based, human
- condition.label: Homo sapiens, TK-10
parameter: LC50 (µM)

                        structure_as_smiles  comparison_sign  number
0  COc1cc(/C=C/c2cc(O)cc(OC)c2CC=C(C)C)ccc1O                =    40.5
1  COc1cc(/C=C/c2cc(O)c(CC=C(C)C)c(O)c2)ccc1O                >     100
2  COc1cc(/C=C/c2cc(O)cc(OCC=C(C)C)c2)ccc1O                =    40.1
3  COc1cc(O)cc(/C=C/c2ccc(O)c(O)c2)c1CC=C(C)C                >     100
4  CC(C)=CCOc1cc(O)cc(/C=C/c2ccc(O)c(O)c2)c1                >     100
5  CC(C)=CCc1c(O)cc(/C=C/c2ccc(O)c(O)c2)c(CC=C(C)C)c1O                =    34.3

* * *

- System: TK-10
- assay.procedure: NCI in vitro cancer screen, Renal Cancer
- Type: cell-based, human
- condition.label: TK-10
parameter: TGI

In [3]: df
Out[3]:
                        structure_as_smiles   result
0  CC(C)=CCc1c(O)cc(/C=C/c2ccc(O)c(O)c2)c(CC=C(C)C)c1O  11.2 µM
1  COc1cc(/C=C/c2cc(O)cc(OC)c2CC=C(C)C)ccc1O  15.7 µM
2  CC(C)=CCOc1cc(O)cc(/C=C/c2ccc(O)c(O)c2)c1  9.66 µM
3  COc1cc(/C=C/c2cc(O)c(CC=C(C)C)c(O)c2)ccc1O  31.4 µM
4  CC(C)=CCc1c(O)cc(/C=C/c2ccc(O)cc2)c(CC=C(C)C)c1O  9.33 µM
5  COc1cc(O)cc(/C=C/c2ccc(O)c(O)c2)c1CC=C(C)C  41.2 µM
6  COc1cc(/C=C/c2cc(O)cc(OCC=C(C)C)c2)ccc1O  14.3 µM

* * *

- Test system: M14
- assay.procedure: NCI in vitro cancer screen, Melanoma
- Assay type: cell-based, human
- condition.label: Homo sapiens, M14
Entries and their GI50 values follow.
parameter: GI50 (nM)

In [3]: df
Out[3]:
                                   compound  subject_of_test  parameter  number
0  COc1cc(/C=C/c2cc(O)cc(OCC=C(C)C)c2)ccc1O [USYDS2]              M14       GI50     530
1  COc1cc(/C=C/c2cc(O)cc(OC)c2CC=C(C)C)ccc1O [USYDS1]              M14       GI50      40
2  COc1cc(O)cc(/C=C/c2ccc(O)c(O)c2)c1CC=C(C)C [USYDS9]              M14       GI50     300
3  COc1cc(/C=C/c2cc(O)c(CC=C(C)C)c(O)c2)ccc1O [USYDS13]              M14       GI50    4920
4  CC(C)=CCc1c(O)cc(/C=C/c2ccc(O)c(O)c2)c(CC=C(C)C)c1O [USYDS7]              M14       GI50    1790
5  CC(C)=CCc1c(O)cc(/C=C/c2ccc(O)cc2)c(CC=C(C)C)c1O [USYDS6]              M14       GI50    2820
6  CC(C)=CCOc1cc(O)cc(/C=C/c2ccc(O)c(O)c2)c1 [USYDS4]              M14       GI50     910
